Test system: CHO-AA8
Protocol summary: Inhibition of cell growth in culture against Chinese hamster ovary derived cell line, AA8
Format: functional, cell-based, Cricetulus griseus
Particulars: Cricetulus griseus, CHO-AA8
Observable: IC50 (nM)
Number in nM, nothing else.

The examples below pair each entry with its known result.
- Smi: "CCN(CCCl)c1ccc(Oc2ccc(Nc3ccnc4ccccc34)cc2)cc1"
  System tested: "CHO-AA8"
  IC50 [nM]: 7000
- Smi: "C[n+]1ccc(Nc2ccc(C(=O)Nc3ccc(N(CCCl)CCCl)cc3)cc2)c2ccccc21"
  System tested: "CHO-AA8"
  IC50 [nM]: 340
- Smi: "C[n+]1ccc(Nc2ccc(C(=O)c3ccc(N(CCCl)CCCl)cc3)cc2)c2ccccc21"
  System tested: "CHO-AA8"
  IC50 [nM]: 2850

Now consider a different compound.
Noted for C[n+]1ccc(Nc2ccc(Oc3ccc(N(CCCl)CCCl)cc3)cc2)c2ccccc21 : its IC50 reads 650
